- Assay: chemical genetic growth profiling, strain panel (AID 1159580);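 also: tested at 20 µM; growth read once vehicle control cultures reached saturation at 30 °C; 1 = growth at the plate median or of vehicle wells; lower values mean less growth of the strain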
- Study Conditions: S. cerevisiae deletion strains, growth OD, locus YOR069W, strain VPS5, stronger effect = lower value
The whole screen tested about 5,500 compounds, of which about 2,000 (36%) were called active. Roughly 18% stayed inconclusive and do not appear here. This is one part of the list.
Measured Endpoint: normalized growth
No unit in the answer, please; the number alone is enough.

State its normalized growth for this molecule: CCC(C)C(=O)O[C@@H]1C[C@@]2(C)[C@H](c3ccoc3)OC(=O)CC23OC2(C)OC34[C@H](OC(=O)C(C)C)[C@@]3(O)[C@@H](OC(=O)C5(C)OC5C)[C@@]5(C)C[C@]3(O)[C@@](C)([C@H]5CC(=O)OC)C14O2 (stereo partly drawn)
1

Consider the molecule CCn1cc(C(=O)O)c(=O)c2cc(F)c(N3CCNC(C)C3)c(F)c21 (stereo not drawn) . State its measured normalized growth.
0.988

Look up and state reported normalized growth for `CCCCC[C@H]1C(=O)O[C@H](C)[C@H](NC(=O)c2cccc(NC=O)c2O)C(=O)O[C@@H](C)[C@@H]1OC(=O)CC(C)C`
0.932

Given COc1ccc(C(CN(C)C)C2(O)CCCCC2)cc1 (stereo not drawn) , respond with its normalized growth.
0.995

Identify normalized growth associated with the molecule Oc1cc(O)c2c(c1)OC(c1cc(O)c(O)c(O)c1)C(O)C2c1c(O)cc(O)c2c1OC(c1cc(O)c(O)c(O)c1)C(O)C2c1c(O)cc(O)c2c1OC(c1cc(O)c(O)c(O)c1)C(O)C2 (stereo not drawn)
0.976

Quickly give me recorded normalized growth for `NS(=O)(=O)c1cc2c(cc1Cl)NC=NS2(=O)=O`
1

Indicate the recorded normalized growth value for this molecule: `COc1ccc([C@H]2Oc3c(I)c(OC)cc(OC)c3C[C@@H]2O)cc1OC`
1.02

Respond only with normalized growth recorded for `C[C@H]1COc2c(N3CCN(C)CC3)c(F)cc3c(=O)c(C(=O)O)cn1c23`
0.995

Where do the numbers come from? From PubChem BioAssay AID1159580.
